target: RET (658-1114) (Homo sapiens, UniProt P07949); construct: 658-1114; expressed in transfected cells; host or cells: 293T.144 (293T cells, generated in-house); test: HiBiT-Degradation, RET wild-type degradation assay (Nano-Glo HiBiT Lytic), 293T.144 cells; format: cell-based
READOUT_LABEL: 293T.144 RET (658-1114) 6.0 hours (IP) [nM]

compound="COc1ccc(CN2C3CC2CN(c2ccc(-c4nc(-c5cnn([C@H]6CC[C@@H](N7CCC(c8cc9c(cc8F)c(N8CCC(=O)NC8=O)nn9C)C(F)(F)C7)CC6)c5)cn5ncc(C#N)c45)cn2)C3)cn1 (relative stereo)" subject_of_test="RET (658-1114) (Homo sapiens, UniProt P07949)" assay_result="++++ (<50 nM = ++++)"
compound="N#Cc1cnn2cc(-c3cnn(C4CCN(C(=O)CC5(O)CCN(c6ccc(NC7CCC(=O)NC7=O)cc6F)CC5)CC4)c3)cc(-c3ccc(N4CCC(c5cccc(O)c5)CC4)nc3)c12 (centres unmarked)" subject_of_test="RET (658-1114) (Homo sapiens, UniProt P07949)" assay_result="++++ (<50 nM = ++++)"

====

Recorded DC50 values for a group of compounds are listed next.
Target: RET(KD: 658-1114 G810R) (Homo sapiens, UniProt P07949, G810R)
Construct: 658-1114; expressed in transfected cells; host or cells: 293T.165 (293T cells, generated in-house)
Sequence (P07949 658-1114 G810R): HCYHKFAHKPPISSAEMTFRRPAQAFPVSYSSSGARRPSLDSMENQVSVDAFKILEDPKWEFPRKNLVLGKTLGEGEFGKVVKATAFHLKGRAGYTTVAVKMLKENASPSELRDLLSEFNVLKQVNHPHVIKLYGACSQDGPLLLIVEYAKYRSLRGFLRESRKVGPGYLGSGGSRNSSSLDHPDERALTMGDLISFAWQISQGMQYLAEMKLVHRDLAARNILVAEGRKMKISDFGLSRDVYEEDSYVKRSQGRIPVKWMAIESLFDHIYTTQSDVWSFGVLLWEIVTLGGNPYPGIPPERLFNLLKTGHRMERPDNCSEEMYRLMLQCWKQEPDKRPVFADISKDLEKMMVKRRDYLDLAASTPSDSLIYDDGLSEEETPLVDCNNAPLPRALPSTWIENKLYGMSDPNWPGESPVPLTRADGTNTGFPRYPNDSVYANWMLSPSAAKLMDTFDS
Test: HiBiT-Degradation, RET G810R degradation assay (Nano-Glo HiBiT Lytic), 293T.165 cells
Assay type: cell-based
Conditions: 6.0 hours, half-maximal degradation concentration, read-out: 293T.165 RET(KD: 658-1114 G810R) 6.0 hours (DC50)
READOUT_LABEL: DC50

compound="N#Cc1cnn2cc(-c3ccc(N4CCN(C(=O)CN5CCC(c6ccc(NC7CCC(=O)NC7=O)cc6F)CC5)CC4)nc3)cc(-c3ccc(N4CCN(Cc5ccccn5)CC4)nc3)c12 (stereo not drawn) [Compound 67]" subject_of_test="RET(KD: 658-1114 G810R) (Homo sapiens, UniProt P07949, G810R)" readout_label=DC50 assay_result="< 100 nM"
compound="N#Cc1cnn2cc(-c3cnn([C@H]4CC[C@H](N5CCC(c6ccc(NC7CCC(=O)NC7=O)cc6F)CC5)CC4)c3)nc(-c3ccc(N4CCC5(CC4)OCc4cccnc45)nc3)c12 (single isomer, unassigned) [Compound 148]" subject_of_test="RET(KD: 658-1114 G810R) (Homo sapiens, UniProt P07949, G810R)" readout_label=DC50 assay_result="< 50 nM"
compound="CCC1(C(=O)NC2CCOCC2)CCN(c2ccc(-c3nc(-c4cnn([C@H]5CC[C@H](N6CCC(c7ccc(N[C@@H]8CCC(=O)NC8=O)cc7F)CC6)CC5)c4)cn4ncc(C#N)c34)cn2)CC1 (stereo in doubt) [Compound 143]" subject_of_test="RET(KD: 658-1114 G810R) (Homo sapiens, UniProt P07949, G810R)" readout_label=DC50 assay_result="< 50 nM"
compound="N#Cc1cnn2cc(-c3cnn([C@H]4CC[C@@H](N5CCN(c6c(F)cc(NC7CCC(=O)NC7=O)cc6F)CC5)CC4)c3)nc(-c3ccc(N4CCC5(CC4)CCN5c4nccc(Cl)n4)nc3)c12 (single isomer, unassigned) [Compound 204]" subject_of_test="RET(KD: 658-1114 G810R) (Homo sapiens, UniProt P07949, G810R)" readout_label=DC50 assay_result="< 100 nM"
compound="CCC1(C(=O)NC(C)(C)C)CCN(c2ccc(-c3nc(-c4cnn(C5CCN(C(=O)CC6(O)CCN(c7ccc(NC8CCC(=O)NC8=O)cc7Cl)CC6)CC5)c4)cn4ncc(C#N)c34)cn2)CC1 (stereo not drawn) [Compound 102]" subject_of_test="RET(KD: 658-1114 G810R) (Homo sapiens, UniProt P07949, G810R)" readout_label=DC50 assay_result="< 50 nM"
compound="CCC1(C(=O)NC(C)C)CCN(c2ncc(-c3nc(-c4cnn(C5CCN(C(=O)CC6(O)CCN(c7ccc(NC8CCC(=O)NC8=O)cc7Cl)CC6)CC5)c4)cn4ncc(C#N)c34)cc2F)CC1 (stereo not drawn) [Compound 120]" subject_of_test="RET(KD: 658-1114 G810R) (Homo sapiens, UniProt P07949, G810R)" readout_label=DC50 assay_result="< 100 nM"
compound="CCC1(C(=O)NC(C)C)CCN(c2ccc(-c3cc(-c4cnn(C5CCN(C(=O)CN6CCC(c7ccc8c(N9CCC(=O)NC9=O)nn(C)c8c7)CC6)CC5)c4)cn4ncc(C#N)c34)cn2)CC1 [Compound 63]" subject_of_test="RET(KD: 658-1114 G810R) (Homo sapiens, UniProt P07949, G810R)" readout_label=DC50 assay_result="< 100 nM"
compound="CCC1(C(=O)NC(C)C)CCN(c2ccc(-c3nc(-c4cnn(C5CCN(C(=O)Cc6ccc(-c7ccc(NC8CCC(=O)NC8=O)cc7F)cc6)CC5)c4)cn4ncc(C#N)c34)cn2)CC1 (stereo not drawn) [Compound 89]" subject_of_test="RET(KD: 658-1114 G810R) (Homo sapiens, UniProt P07949, G810R)" readout_label=DC50 assay_result="< 100 nM"
compound="CC(=O)N1CCN(c2ccc(-c3nc(-c4ccc(N5CCN(C(=O)CN6CCC(c7ccc(NC8CCC(=O)NC8=O)cc7)CC6)CC5)cc4)cn4ncc(C#N)c34)cn2)CC1 (stereo not drawn) [Compound 27]" subject_of_test="RET(KD: 658-1114 G810R) (Homo sapiens, UniProt P07949, G810R)" readout_label=DC50 assay_result="< 50 nM"

====

Recorded DC50 values for a group of compounds are listed next.
Target: RET(KD: 658-1114 G810R) (Homo sapiens, UniProt P07949, G810R)
Construct: 658-1114; expressed in transfected cells; host or cells: 293T.165 (293T cells, generated in-house)
Assay: HiBiT-Degradation, RET G810R degradation assay (Nano-Glo HiBiT Lytic), 293T.165 cells
Format: cell-based
Settings: 6.0 hours, half-maximal degradation concentration, read-out: 293T.165 RET(KD: 658-1114 G810R) 6.0 hours (DC50)
Procedure: Dulbecco's modified Eagle medium (DMEM) no-phenol red media and fetal bovine serum (FBS) were purchased from Gibco (Grand Island, NY, USA). […] RET wild-type (WT) and G810R degradation were assessed using the Nano-Glo® HiBiT Lytic assay (Promega, Medison, WI, USA). […] Luminescence signal was measured using an EnVision™ Multimode plate reader (Perkin Elmer, Santa Clara, CA, USA). […]
READOUT_LABEL: DC50

compound="N#Cc1cnn2cc(-c3cnn(C4CCN(C(=O)CN5CCC(c6ccc(NC7CCC(=O)NC7=O)cc6F)CC5)CC4)c3)cc(-c3ccc(N4CCN(C(=O)Cc5ccc(F)cn5)CC4)nc3)c12 (stereo not shown) [Compound 5]" readout_label=DC50 assay_result="< 0.05 µM"
compound="CCC1(C(=O)NC(C)C)CCN(c2ccc(-c3nc(-c4cnn(C5CCN(C(=O)CC6(O)CCN(c7cc(OC)c(NC8CCC(=O)NC8=O)cc7Cl)CC6)CC5)c4)cn4ncc(C#N)c34)cn2)CC1 (stereo not shown) [Compound 90]" readout_label=DC50 assay_result="< 0.05 µM"
compound="CCC1(C(=O)Nc2ccc(F)cc2)CCN(c2ccc(-c3nc(-c4cnn(C5CCN(C(=O)CC6(O)CCN(c7ccc(NC8CCC(=O)NC8=O)cc7Cl)CC6)CC5)c4)cn4ncc(C#N)c34)cn2)CC1 (stereo not shown) [Compound 100]" readout_label=DC50 assay_result="< 0.1 µM"
compound="CC(C)CC(=O)N1CCN(c2ccc(-c3nc(-c4cnn(C5CCN(C(=O)CC6CCN(c7ccc(NC8CCC(=O)NC8=O)cc7F)CC6)CC5)c4)cn4ncc(C#N)c34)cn2)CC1 (stereo not shown) [Compound 185]" readout_label=DC50 assay_result="< 0.1 µM"
compound="N#Cc1cnn2cc(-c3cnn([C@H]4CC[C@H](N5CCN(c6ccc(N[C@H]7CCC(=O)NC7=O)cc6F)CC5)CC4)c3)nc(-c3ccc(N4CC5COCC(C4)N5Cc4ccccn4)nc3)c12 (single isomer, unassigned) [Compound 155]" readout_label=DC50 assay_result="< 0.05 µM"
compound="COc1ccc(CC2(O)CCN(c3ccc(-c4nc(-c5cnn([C@H]6CC[C@H](N7CCN(c8cc(OC)c(NC9CCC(=O)NC9=O)cc8F)CC7)CC6)c5)cn5ncc(C#N)c45)cn3)CC2)nc1 (stereo partly shown) [Compound 215]" readout_label=DC50 assay_result="< 0.05 µM"
compound="COc1cc(N2CCN(C3CCC(n4cc(-c5cn6ncc(C#N)c6c(-c6ccc(N7CC8COCC(C7)N8Cc7ccccn7)nc6)n5)cn4)CC3)CC2)c(F)cc1NC1CCC(=O)NC1=O (stereo not shown) [Compound 205]" readout_label=DC50 assay_result="< 0.1 µM"
compound="N#Cc1cnn2cc(-c3cnn(C4CCN(C(=O)CC5(O)CCN(c6ccc(NC7CCC(=O)NC7=O)cc6F)CC5)CC4)c3)nc(-c3ccc(N4CCC5(CC4)OCc4cccnc45)nc3)c12 (stereo not shown) [Compound 113]" readout_label=DC50 assay_result="< 0.05 µM"
compound="N#Cc1cnn2cc(-c3ccc(N4CCN(C(=O)CN5CCC(c6ccc(NC7CCC(=O)NC7=O)cc6F)CC5)CC4)cc3)cc(-c3ccc(N4CCN(Cc5ccccn5)CC4)nc3)c12 (stereo not shown) [Compound 28]" readout_label=DC50 assay_result="< 0.1 µM"
compound="CCC1(C(=O)NC(C)C)CCN(c2ccc(-c3cc(-c4cnn([C@H]5CC[C@H](N6CCC(c7ccc(N[C@@H]8CCC(=O)NC8=O)cc7F)CC6)CC5)c4)cn4ncc(C#N)c34)cn2)CC1 (single isomer, unassigned) [Compound 195]" readout_label=DC50 assay_result="< 0.05 µM"

Entry source: patent US12661410B2
